- assayName: NCI Yeast Anticancer Drug Screen. Data for the rad50 strain (AID 155);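 note: 0% = growth of vehicle-only cultures of the same strain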
- setupConditions: S. cerevisiae rad50 strain growth inhibition; at 50.0 µM; active compounds read high
About 79,000 compounds went through this panel and 15% of them were active in at least one assay; those are over-represented in the sample as a whole. Calls of active or inactive are those of the source. Cut-off read from the data, not from the text of the source: active = growth inhibition above about 70%; inactive = the rest.
Provide the reported growth inhibition of each item.

Example results:
{"columns": ["molecule", "recordedResult"],
 "data": [
  ["C=CCOc1c(CCC)cc(CN)cc1CCC", "4.45% (inactive)"],
  ["S=C(Nc1ccccc1)N(Cc1ccccc1)c1ccccc1", "62% (inactive)"]
]}

Continue with the molecule presented below.
-- ask Reported growth inhibition for N#CC=Cc1ccc([N+](=O)[O-])s1 (mixture of isomers) : what is it?
-- reply 89.8% (active)
